Taken from ChEMBL document CHEMBL3988442.

Test system: Trypanosoma brucei
Assay: Trypanosoma brucei 72 hour study
Type: functional, organism-based
Design: scale not given: in the data most compounds retested in dose-response had high values
Conditions: 30.3 µM; […]
In all, about 66,000 compounds went through this assay and about 960 (1.5%) showed an effect of 50% or more. This is one part of a sample in which strong results are shown more often than they occur.
The molecules listed here are annotated with their Percent Effect.

Quick one: Percent Effect for `CC(=O)N1C[C@@H](c2ccsc2)[C@@H]2CN(Cc3ccccc3C)CC[C@@H]21` ? -10.13%

Queued: `Cc1cc(C(=O)N2CCN(C)CC2)nn1CC(=O)NCc1cccs1.Cl` 4.887%

Queued: O=C(c1ccc(COc2ccc(Cl)cc2)o1)N1N=CCC1(O)C(F)(F)F (stereo not drawn) 99.58%

Queued: `CC(=O)NC1CCN(c2ccnc(C3CCNCC3)c2)CC1.O=C(O)C(F)(F)F` -10.98%

Queued: `Cc1cc(C(=O)N2CCn3cc(CN4CCOCC4)nc3C2)no1.O=C(O)C(F)(F)F` -304.6%

Queued: `COc1ccc(NS(=O)(=O)c2cnc(NC(C)=O)s2)cc1` -9.359%

---
Quick one: Percent Effect for Cc1cccc(CN2CCC3(CC2)CC(c2cccnc2)C(=O)N3C)n1.O=C(O)C(F)(F)F.O=C(O)C(F)(F)F (stereo not drawn) ? -33.95%

Queued: `Cc1ccc(NC2CCN(C(=O)CCc3ccncc3)CC2)nn1` 5.448%

Queued: Cc1cccc(OCc2ccc(C(=O)N3N=CCC3(O)C(F)(F)F)o2)c1 (stereo not drawn) 67.46%

Queued: `c1cc(-c2n[nH]c(CNc3nnc(C4CC4)o3)n2)ccn1` 0.7676%

Queued: `Cc1ccc(CN(CCCn2ccnc2)Cc2[nH]cnc2C)s1.O=C(O)CC(O)(CC(=O)O)C(=O)O` 19.63%

Queued: `COc1cc(C(=O)NCC2(N(C)C)CCN(C)CC2)c2ccccc2n1` -18.58%

Queued: Clc1ccc(C2NCCc3cc4c(cc32)OCCO4)cc1 (stereo not drawn) -20.9%

Queued: CCc1ccc(C2NCCc3cc4c(cc32)OCCO4)cc1 (stereo not drawn) 67.24%

Queued: `O=C(c1cscn1)N1C[C@H]2CCC[C@@]2(COCc2ccccn2)C1` -7.729%

Queued: `O=C(N[C@H]1CC[C@@]2(CCC(=O)N2CC2CC2)CC1)c1cnccn1` -8.587%

Queued: Cn1nccc1CN1CCOC(c2cccc(Nc3ccccn3)n2)C1 (stereo not drawn) 100.5%

Queued: `COc1ccc(Cl)cc1NCC(=O)NCc1cccnc1OC` 74.82%

Queued: Cc1ccccc1N1CC2(CCN(S(=O)(=O)c3ccccc3)C2)CC1=O (stereo not drawn) 11.6%

Queued: `Cc1cnn(CCCNCc2csc(COc3ccccc3)n2)c1` 10.81%

Queued: `CCCn1nccc1C(=O)Nc1ncc(C)s1` 83.34%

Queued: CC(Cn1cccn1)NCc1csc(COc2ccccc2)n1 (stereo not drawn) 63.51%

Queued: `c1ccc(OCc2nc(CNCCn3cccn3)cs2)cc1` -9.773%

Queued: CCOC(=O)C1CCCCN1Cc1c[nH]nc1-c1cc2ccccc2o1 (stereo not drawn) 58.53%

###

Test system: Trypanosoma brucei
Experiment: Trypanosoma brucei 72 hour study
Format: functional, organism-based
Parameters: scale not given: in the data most compounds retested in dose-response had high values
Settings: 10 µM
Hit rate of the full screen: of about 66,000 compounds, about 960 (1.5%) showed an effect of 50% or more. The list comes from a sample in which strong results are over-represented; it also holds close analogues and randomly drawn compounds.
One threshold, -30%, splits the recorded Percent Effect values: lower ones are Y, equal or higher ones are N.

Worked examples follow.
# strict comparison: is reported Percent Effect < -30%? input = `CCN(CC)CCn1c(NC(=O)c2scnc2C)nc2ccccc21` N

Queued: OC(CN1CCC(CNCc2ccccn2)CC1)c1ccccc1 (configuration not stated) N

Queued: `Cl.O=C(Nc1cccc(CNCc2ccsc2)c1)C1CC1` Y

Queued: `O=C(NCCc1ccn(-c2ccccc2)n1)N1CCSCC1` N

Queued: Cc1ccc(CNCC2CCN(CC(O)c3ccccc3)CC2)o1 (configuration not stated) N

Queued: CCn1c(C(=O)N2CCN(CC[S+](C)[O-])CC2)cc2ccccc21 (configuration not stated) Y

Queued: CCN1CCOC(CNCc2ccc(OCc3ccccn3)cc2)C1 (configuration not stated) Y

Queued: `CCOCCCn1c(NC(=O)c2cnc(C)s2)nc2ccccc21` N

Queued: Cc1nn(C)c(N(C)C)c1CNC1CCc2cc(F)ccc21.Cl (configuration not stated) Y

Queued: Cc1csc(N2CCN(CC(=O)N3CCNC3=O)CC2C)n1 (configuration not stated) Y

---
# strict comparison: is reported Percent Effect < -30%? input = `COc1cc(C(=O)Nc2nc(C)no2)cc(OC)c1Br` N

Queued: `CCOCCCn1c(NC(=O)c2ccnc(C)n2)nc2ccccc21` N
